Would you mind telling me the reported inhibition of each entry?
target: UniProt P11362; assay: Inhibition of FGFR1 (unknown origin) at 500 nM
Sequence (P11362 22-822 limits assumed): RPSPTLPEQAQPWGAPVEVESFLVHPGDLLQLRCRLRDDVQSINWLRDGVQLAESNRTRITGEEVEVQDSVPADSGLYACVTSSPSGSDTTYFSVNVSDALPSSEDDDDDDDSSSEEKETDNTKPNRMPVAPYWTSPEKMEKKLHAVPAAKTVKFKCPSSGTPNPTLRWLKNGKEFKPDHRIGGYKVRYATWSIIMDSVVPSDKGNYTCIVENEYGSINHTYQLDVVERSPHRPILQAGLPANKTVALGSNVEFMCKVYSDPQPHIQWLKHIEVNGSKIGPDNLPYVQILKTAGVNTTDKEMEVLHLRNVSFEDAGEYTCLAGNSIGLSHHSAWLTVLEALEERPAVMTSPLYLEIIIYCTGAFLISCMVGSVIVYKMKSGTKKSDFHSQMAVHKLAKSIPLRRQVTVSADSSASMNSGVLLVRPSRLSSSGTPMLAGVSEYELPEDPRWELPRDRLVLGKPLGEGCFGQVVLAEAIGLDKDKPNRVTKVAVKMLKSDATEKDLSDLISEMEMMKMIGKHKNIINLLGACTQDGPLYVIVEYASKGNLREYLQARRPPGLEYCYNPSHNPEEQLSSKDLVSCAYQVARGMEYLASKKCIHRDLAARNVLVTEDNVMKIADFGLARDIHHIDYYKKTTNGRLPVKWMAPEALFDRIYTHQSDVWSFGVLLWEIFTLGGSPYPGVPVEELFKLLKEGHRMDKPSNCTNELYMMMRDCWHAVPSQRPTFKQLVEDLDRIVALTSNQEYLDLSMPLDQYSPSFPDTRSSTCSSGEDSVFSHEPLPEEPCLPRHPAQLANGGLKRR

[
  {
    "compound": "COc1cc(CO)ccc1-c1cc2c(Nc3ccccc3)ncnc2s1",
    "inhibition": "-4%"
  }
]

Please give inhibition for each item listed below.
1. COc1cc(CO)ccc1-c1cc2c(Nc3ccc(F)c(Cl)c3)ncnc2s1
2. COc1cc(C(N)=O)ccc1-c1cc2c(N[C@H](CO)c3ccccc3)ncnc2s1
3. C[C@@H](Nc1ncnc2sc(-c3ccccc3C(N)=O)cc12)c1ccccc1
4. C[C@@H](Nc1ncnc2sc(-c3ccc(C(=O)NCCN(C)C)cc3)cc12)c1ccccc1
5. C#Cc1cccc(Nc2ncnc3cc(OCCOC)c(OCCOC)cc23)c1 [ERLOTINIB]
6. COc1cc(CO)ccc1-c1cc2c(N[C@H](CO)c3ccccc3)ncnc2s1

["-7%", "-10%", "-6%", "-7%", "-4%", "4%"]

Quick batch: inhibition for everything below.
1. COc1ccc(C(=O)NCCN(C)C)cc1-c1cc2c(N[C@H](C)c3ccccc3)ncnc2s1
2. COc1cc(CO)ccc1-c1cc2c(N[C@H](C)c3ccccc3)ncnc2s1
3. CN(C)CCNC(=O)c1ccc(-c2cc3c(N[C@H](CO)c4ccccc4)ncnc3s2)cc1
4. C#Cc1cccc(Nc2ncnc3sc(-c4ccc(CO)cc4OC)cc23)c1

1: -4%; 2: 1%; 3: -5%; 4: -6%
